Biological target: T1, EVA‐ACA1001, Avi-tagged and biotinylated (SPR construct) (Amblyomma cajennense (Cayenne tick), UniProt A0A023FFD0 29-136, biotin on the AVI tag (BirA ligase))
T1 construct: EVA-ACA1001 (Evasin P991), class A3 evasin of Amblyomma cajennense; mass of the untagged protein 11,920 Da (calculated 11,921 Da with five disulfides); also called Evasin P991; full‐length EVA‐ACA1001; not shown: His6, N-terminal, cleaved; SUMO, N-terminal, cleaved
T1 sequence: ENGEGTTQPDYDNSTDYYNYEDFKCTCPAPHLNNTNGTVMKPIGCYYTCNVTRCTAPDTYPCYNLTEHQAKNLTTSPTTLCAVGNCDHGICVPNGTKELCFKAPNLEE
Assay: SPR; affinity determination: biotinylated Avi-tagged evasin immobilised on a streptavidin-coated CAPture chip; five two-fold increasing chemokine concentrations (31.25-500 nM), 240 s at 30 uL/min, 600 s dissociation; 1:1 binding model; 25°C; 10 mM HEPES, 500 mM NaCl, 0.002% Tween 20, 3 mM EDTA, 1 mg/mL carboxymethyl dextran, pH 7.5; three independent experiments (Table 1 caption: multiple-cycle kinetics)
Details: both partners purified
# Kd per entry
The answer is to be given in nM; state only the numeric part.

binder="CCL3 (ligand, human, UniProt P10147 24-92, looked up, CCL3, human CC chemokine) SLAADTPTACCFSYTSRQIPQNFIADYFETSSQCSKPGVIFLTKRSRQVCADPSEEWVQKYVSDLELSA" endpoint_label=Kd val=1.08

Name the recorded Kd for CCL15 (ligand) QFTNDAETELMMSKLPLENPVVLNSFHFAADCCTSYISQSIPCSLMKSYFETSSECSKPGVIFLTKKGRQVCAKPSGPGVQDCMKKLKPYSI .
107

Name the recorded Kd for CCL26 (ligand, human, UniProt Q9Y258 24-94, looked up, CCL26, human CC chemokine) TRGSDISKTCCFQYSHKPLPWTWVRSYEFTSNSCSQRAVIFTTKRGKKVCTHPRKKWVQKYISLLKTPKQL .
1.68

Name the recorded Kd for CCL5 (ligand, human, UniProt P13501 24-91, looked up, CCL5, human CC chemokine) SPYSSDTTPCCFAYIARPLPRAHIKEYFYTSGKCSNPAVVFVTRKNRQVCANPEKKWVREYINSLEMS .
0.27

Name the recorded Kd for CCL19 (ligand, human, UniProt Q99731 22-98, looked up, CCL19, human CC chemokine) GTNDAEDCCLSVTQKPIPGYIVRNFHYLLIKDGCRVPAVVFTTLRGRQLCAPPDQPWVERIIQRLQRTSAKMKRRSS .
1.31

Name the recorded Kd for CCL23 (ligand) RVTKDAETEFMMSKLPLENPVLLDRFHATSADCCISYTPRSIPCSLLESYFETNSECSKPGVIFLTKKGRRFCANPSDKQVQVCMRMLKLDTRIKTRKN .
1.17

Name the recorded Kd for CCL24 (ligand, human, UniProt O00175 27-119, looked up, CCL24, human CC chemokine) VVIPSPCCMFFVSKRIPENRVVSYQLSSRSTCLKAGVIFTTKKGQQFCGDPKQEWVQRYMKNLDAKQKKASPRARAVAVKGPVQRYPGNQTTC .
8.9

Name the recorded Kd for CCL8 (ligand, human, UniProt P80075 24-99, looked up, CCL8, human CC chemokine) QPDSVSIPITCCFNVINRKIPIQRLESYTRITNIQCPKEAVIFKTKRGKEVCADPKERWVRDSMKHLDQIFQNLKP .
4.76

Name the recorded Kd for CCL1 (ligand, human, UniProt P22362 24-96, looked up, CCL1, human CC chemokine) KSMQVPFSRCCFSFAEQEIPLRAILCYRNTSSICSNEGLIFKLKRGKEACALDTVGWVQRHRKMLRHCPSKRK .
21.1

Name the recorded Kd for CCL17 (ligand, human, UniProt Q92583 24-94, looked up, CCL17, human CC chemokine) ARGTNVGRECCLEYFKGAIPLRKLKTWYQTSEDCSRDAIVFVTVQGRAICSDPNNKRVKNAVKYLQSLERS .
1.01

# credit: paper PMC11081419
